# target: Cathepsin B (Homo sapiens)
# assay-name: Mixed inhibition of human recombinant cathepsin B endopeptidase activity using Z-Arg-Arg-AMC substrate assessed as inhibition constant for enzyme-substrate-inhibitor complex
# Ki listing for each entry below
measured-metric: Ki

In [3]: df
Out[3]:
                                    compound  measured_metric  result
 0             Nc1ccc([N+](=O)[O-])c2ccccc12               Ki  111 µM
 1  CCN(CC)C(=O)C1CCCN(c2ccc([N+](=O)[O-])c3cccnc23)C1 (racemic)               Ki  117 µM
 2   CC1CCN(c2ccc([N+](=O)[O-])c3cccnc23)CC1               Ki  105 µM
 3       O=[N+]([O-])c1ccc(N2CCCC2)c2ccccc12               Ki  277 µM
 4  CCOC(=O)[C@@H]1CCCC[C@@H]1NCc1cc([N+](=O)[O-])c2cccnc2c1O               Ki   74 µM
 5  O=C(O)[C@@H]1CCCC[C@@H]1NCc1cc([N+](=O)[O-])c2cccnc2c1O               Ki  125 µM
 6  O=[N+]([O-])c1cc(CN2CCN(Cc3ccncc3)CC2)c(O)c2ncccc12               Ki   94 µM
 7         CCNCc1cc([N+](=O)[O-])c2cccnc2c1O               Ki   82 µM
 8      O=[N+]([O-])c1ccc(N2CCOCC2)c2ccccc12               Ki  125 µM
 9    O=[N+]([O-])c1ccc(NCc2ccccn2)c2ncccc12               Ki   87 µM
10    CN(CC#N)Cc1cc([N+](=O)[O-])c2cccnc2c1O               Ki   76 µM
11      O=[N+]([O-])c1ccc(N2CCOCC2)c2ncccc12               Ki  153 µM
12  CCOC(=O)N1CCN(Cc2cc([N+](=O)[O-])c3cccnc3c2O)CC1               Ki   87 µM
13  CCOC(=O)C1CCN(c2ccc([N+](=O)[O-])c3cccnc23)CC1               Ki  113 µM
14  O=[N+]([O-])c1cc(CN2CCN(Cc3cccnc3)CC2)c(O)c2ncccc12               Ki  171 µM
